Test system: COR-L23
method: relative viability (nuclei count vs DMSO), 5 days (fraction); higher = more cells survive
condition: first compound 0.08 µM
The reader will find reported relative viability values listed item by item below.
API doc: respond with a numeric literal and nothing else, no unit.

>>> reported("Cc1cnc(-c2cnc(NCCNc3ccc(C#N)cn3)nc2-c2ccc(Cl)cc2Cl)[nH]1 + CCNC(=O)c1noc(-c2cc(C(C)C)c(O)cc2O)c1-c1ccc(CN2CCOCC2)cc1 [Luminespib] (partner 0.01 µM)")
0.784

Please find the next compound below.
IN: Param item = Cc1cnc(-c2cnc(NCCNc3ccc(C#N)cn3)nc2-c2ccc(Cl)cc2Cl)[nH]1 + COc1cc2c(Oc3ccc(NC(=O)C4(C(=O)Nc5ccc(F)cc5)CC4)cc3F)ccnc2cc1OCCCN1CCOCC1 [Foretinib] (partner 0.25 µM) ; retrieve measured relative viability.
OUT: 0.853

----------
System: NCI-H1437
method: relative viability (nuclei count vs DMSO), 5 days (fraction); higher = more cells survive
condition: first compound 0.1581 µM
measured.property: relative viability
API doc: respond with a numeric literal and nothing else, no unit.

The cases that follow already have their relative viability on record.
>>> reported("Nc1ccn([C@@H]2O[C@H](CO)[C@@H](O)[C@@H]2O)c(=O)n1 [Cytarabine] + COc1cccc2cc(-c3nc([C@H]4CC[C@H](C(=O)O)CC4)n4ncnc(N)c34)[nH]c12 [OSI-027] (partner 0.5 µM)")
0.233
>>> reported("COc1cc2nccc(Oc3ccc(NC(=O)Nc4cc(C)on4)c(Cl)c3)c2cc1OC [Tivozanib] + CC1(C)CCC(c2ccc(Cl)cc2)=C(CN2CCN(c3ccc(C(=O)NS(=O)(=O)c4ccc(N[C@H](CCN5CCOCC5)CSc5ccccc5)c(S(=O)(=O)C(F)(F)F)c4)cc3)CC2)C1 [Navitoclax] (partner 0.5 µM)")
1.02

IN: Param item = Nc1ccn([C@@H]2O[C@H](CO)[C@@H](O)[C@@H]2O)c(=O)n1 [Cytarabine] + Cc1cc(Nc2cc(N3CCN(C)CC3)nc(Sc3ccc(NC(=O)C4CC4)cc3)n2)n[nH]1 [Tozasertib] (partner 0.1 µM) ; retrieve measured relative viability.
OUT: 0.251

IN: Another compound: COc1cc2nccc(Oc3ccc(NC(=O)Nc4cc(C)on4)c(Cl)c3)c2cc1OC [Tivozanib] + N=C(N)NC(=N)NCCc1ccccc1 [Phenformin] (partner 250 µM)
OUT: 0.339

----------
Test system: LCLC-103H
method: relative viability (nuclei count vs DMSO), 5 days (fraction); higher = more cells survive
condition: first compound 0.08 µM
relative viability strictly under 0.8 means criterion met; at 0.8 or over means criterion not met.

# count of solved cases: 5
>>> assigned_class("O=c1[nH]c2ccccc2n1C1CCN(CCCC(c2ccc(F)cc2)c2ccc(F)cc2)CC1 [Pimozide] + Cc1nc(Nc2ncc(C(=O)Nc3c(C)cccc3Cl)s2)cc(N2CCN(CCO)CC2)n1 [Dasatinib] (partner 0.075 µM)")
"criterion met"
>>> assigned_class("Cc1cnc(-c2cnc(NCCNc3ccc(C#N)cn3)nc2-c2ccc(Cl)cc2Cl)[nH]1 + O=C(CCCCCCC(=O)Nc1ccccc1)NO [Vorinostat] (partner 1 µM)")
"criterion met"
>>> assigned_class("O=c1[nH]c2ccccc2n1C1CCN(CCCC(c2ccc(F)cc2)c2ccc(F)cc2)CC1 [Pimozide] + Cc1cc(Nc2cc(N3CCN(C)CC3)nc(Sc3ccc(NC(=O)C4CC4)cc3)n2)n[nH]1 [Tozasertib] (partner 0.1 µM)")
"criterion met"
>>> assigned_class("O=c1[nH]c2ccccc2n1C1CCN(CCCC(c2ccc(F)cc2)c2ccc(F)cc2)CC1 [Pimozide] + COc1cccc2cc(-c3nc([C@H]4CC[C@H](C(=O)O)CC4)n4ncnc(N)c34)[nH]c12 [OSI-027] (partner 0.5 µM)")
"criterion met"
>>> assigned_class("O=c1[nH]c2ccccc2n1C1CCN(CCCC(c2ccc(F)cc2)c2ccc(F)cc2)CC1 [Pimozide] + Nc1ncn([C@H]2C[C@H](O)[C@@H](CO)O2)c(=O)n1 [Decitabine] (partner 2 µM)")
"criterion met"

IN: Say whether its relative viability is strictly beneath 0.8. Entry: Cc1cnc(-c2cnc(NCCNc3ccc(C#N)cn3)nc2-c2ccc(Cl)cc2Cl)[nH]1 + Cc1cc(Nc2cc(N3CCN(C)CC3)nc(Sc3ccc(NC(=O)C4CC4)cc3)n2)n[nH]1 [Tozasertib] (partner 0.1 µM)
OUT: criterion met

IN: Another compound: Cc1cnc(-c2cnc(NCCNc3ccc(C#N)cn3)nc2-c2ccc(Cl)cc2Cl)[nH]1 + Cc1nc(NC(=O)N2CCC[C@H]2C(N)=O)sc1-c1ccnc(C(C)(C)C(F)(F)F)c1 [Alpelisib] (partner 2 µM)
OUT: criterion not met

IN: Another compound: Cc1cnc(-c2cnc(NCCNc3ccc(C#N)cn3)nc2-c2ccc(Cl)cc2Cl)[nH]1 + CCNC(=O)c1noc(-c2cc(C(C)C)c(O)cc2O)c1-c1ccc(CN2CCOCC2)cc1 [Luminespib] (partner 0.01 µM)
OUT: criterion not met

IN: Another compound: Cc1cnc(-c2cnc(NCCNc3ccc(C#N)cn3)nc2-c2ccc(Cl)cc2Cl)[nH]1 + NC(=O)Nc1cc(-c2cccc(F)c2)sc1C(=O)N[C@H]1CCCNC1 [AZD7762] (partner 0.2 µM)
OUT: criterion not met

IN: Another compound: Cc1cnc(-c2cnc(NCCNc3ccc(C#N)cn3)nc2-c2ccc(Cl)cc2Cl)[nH]1 + Cc1nc(Nc2ncc(C(=O)Nc3c(C)cccc3Cl)s2)cc(N2CCN(CCO)CC2)n1 [Dasatinib] (partner 0.075 µM)
OUT: criterion met

IN: Another compound: Cc1cnc(-c2cnc(NCCNc3ccc(C#N)cn3)nc2-c2ccc(Cl)cc2Cl)[nH]1 + C[C@]1(O)C[C@@H](c2nc(-c3ccc4ccc(-c5ccccc5)nc4c3)c3c(N)nccn32)C1 [Linsitinib] (partner 1 µM)
OUT: criterion not met

IN: Another compound: Cc1cnc(-c2cnc(NCCNc3ccc(C#N)cn3)nc2-c2ccc(Cl)cc2Cl)[nH]1 + COc1cc2c(Oc3ccc(NC(=O)C4(C(=O)Nc5ccc(F)cc5)CC4)cc3F)ccnc2cc1OCCCN1CCOCC1 [Foretinib] (partner 0.25 µM)
OUT: criterion met

IN: Another compound: Cc1cnc(-c2cnc(NCCNc3ccc(C#N)cn3)nc2-c2ccc(Cl)cc2Cl)[nH]1 + CS(=O)(=O)N1CCN(Cc2cc3nc(-c4cccc5[nH]ncc45)nc(N4CCOCC4)c3s2)CC1 [Pictilisib] (partner 1 µM)
OUT: criterion met
